# Target under test: KRas^G12S (Homo sapiens, UniProt P01116, G12S)
# Construct: Biotinylated KRas (corresponding to amino acids 1-169, produced at Accelegan Inc.); biotin (biotinylated); purchased Accelegan Inc
# Sequence (P01116 1-169 isoform P01116-2 G12S): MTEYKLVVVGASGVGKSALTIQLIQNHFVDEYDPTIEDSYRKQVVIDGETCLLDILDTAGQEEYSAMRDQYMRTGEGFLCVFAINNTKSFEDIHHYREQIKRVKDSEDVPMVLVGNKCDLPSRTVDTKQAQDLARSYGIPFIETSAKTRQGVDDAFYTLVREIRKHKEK
# Measurement notes: KRas binding assay (TR-FRET tracer displacement), KRas G12S
# Experimental context: TR-FRET tracer displacement, KRas G12S
Measured endpoint: IC50 (nM)

1: Oc1cc(-c2ncc3c(N4C[C@@H]5C[C@H](C4)[C@H](O)C5)nc(OC[C@@]45CCCN4C[C@H](F)C5)nc3c2F)c2ccc(Cl)cc2c1 [Example 763]
2: Cc1cc2[nH]cnc2c(-c2ncc3c(N4CCC[C@@](C)(O)C4)nc(OCC45CCCN4CCC5)nc3c2F)c1C [Example 888]
## Input Between 1 and 2 , whose recorded IC50 is greater? Give the chosen item's label as your response.
## Output 2

---

# Target under test: KRas^G12V (Homo sapiens, UniProt P01116, G12V)
# Construct: Biotinylated KRas (corresponding to amino acids 1-169, produced at Accelegan Inc.); biotin (biotinylated); purchased Accelegan Inc
# Sequence (P01116 1-169 isoform P01116-2 G12V): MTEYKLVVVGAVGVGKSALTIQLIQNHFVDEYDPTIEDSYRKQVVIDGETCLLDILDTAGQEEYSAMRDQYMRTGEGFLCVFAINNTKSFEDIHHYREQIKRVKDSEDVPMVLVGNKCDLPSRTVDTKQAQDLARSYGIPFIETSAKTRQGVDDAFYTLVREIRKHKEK
# Measurement notes: KRas binding assay (TR-FRET tracer displacement), KRas G12V
Measured endpoint: IC50 (nM)

## Input Report measured IC50; entry is CCc1c(F)ccc2cc(O)cc(-c3ncc4c(N5CCC(O)C(F)(F)CC5)nc(OC[C@@]56CCCN5C[C@H](F)C6)nc4c3F)c12 (some centres unmarked)
## Output 3

## Input Report measured IC50; entry is CCc1c(F)ccc2cc(O)cc(-c3ncc4c(N5C[C@@H]6C[C@H](C5)[C@H](O)C6)nc(OCC56CCCN5CC(F)(F)C6)nc4c3F)c12 (some centres unmarked)
## Output 4

## Input Report measured IC50; entry is Cc1cc2[nH]ncc2c(-c2ncc3c(N4CCC[C@]5(C4)NC(=O)NC5=O)nc(OC[C@@]45CCCN4C[C@H](F)C5)nc3c2F)c1C
## Output 8

## Input Report measured IC50; entry is CCc1c(F)ccc2cc(O)cc(-c3ncc4c(N5CCCC(Cn6cccn6)C5)nc(OC[C@@]56CCCN5C[C@H](F)C6)nc4c3F)c12 (some centres unmarked)
## Output 28

## Input Report measured IC50; entry is CCCCN(C)C(=O)OC[C@@H]1CC[C@@]2(COc3nc(N4CCC[C@@](C)(O)C4)c4cnc(-c5cc(O)cc6ccc(F)c(CC)c56)c(F)c4n3)CCCN12
## Output 2

A: CCc1c(F)ccc2cc(O)cc(-c3ncc4c(N5CCC(N6C(=O)CCC6=O)C5)nc(OC[C@@]56CCCN5C[C@H](F)C6)nc4c3F)c12 (some centres unmarked)
B: CCc1c(F)ccc2cc(O)cc(-c3ncc4c(N5CCC(C)(O)C(F)(F)CC5)nc(OC[C@@]56CCCN5C[C@H](F)C6)nc4c3F)c12 (some centres unmarked)
C: CCc1c(F)ccc2cc(O)cc(-c3ncc4c(N5C[C@@H]6[C@@H](CC(N)=O)NC(=O)[C@@H]6C5)nc(OC[C@@]56CCCN5C[C@H](F)C6)nc4c3F)c12
D: Oc1cc(-c2ncc3c(N4C[C@@H]5C[C@H](C4)[C@H](O)C5)nc(OC[C@@]45CCCN4C[C@H](F)C5)nc3c2F)c2ccccc2c1Cl
E: Cc1c(Cl)cc2[nH]ncc2c1-c1ncc2c(N3CCC[C@]4(C3)NC(=O)NC4=O)nc(OCC34CCCN3CCC4)nc2c1F
## Input Descending sort on IC50 required. Could you list the labels in the order requested?
## Output D, E, C, A, B
(D: 1660 nM, E: 988 nM, C: 632 nM, A: 222 nM, B: 71 nM)

---

# Test system: KRas-mediated phosphorylation of ERK in H460 cells
# Measurement notes: Inhibition of KRas-mediated phosphorylation of ERK (Cisbio HTRF pERK), H460 cells
# Type: cell-based
# Experimental context: Homo sapiens, NCI-H460, HTRF pERK
Measured endpoint: IC50 (nM)

Sample answers from the record:
## Input Report measured IC50; entry is CN(C)CC1(COc2nc(N3CCCC4(CCO4)C3)c3cnc(-c4cc(O)cc5ccc(F)c(Cl)c45)c(F)c3n2)CC1 (stereo not drawn) [Example 854]
## Output 21

## Input Report measured IC50; entry is CCc1c(F)ccc2cc(O)cc(-c3ncc4c(N5CCC[C@]6(C5)C[C@@H](O)C6)nc(OC[C@@]56CCCN5[C@H](COC(=O)N(C)C)CC6)nc4c3F)c12 [Example 713]
## Output 102

## Input Report measured IC50; entry is CCc1c(F)ccc2cc(O)cc(-c3ncc4c(N5CC6CCC(C5)C6CCO)nc(OC[C@@]56CCCN5C[C@H](F)C6)nc4c3F)c12 (stereo partly drawn) [Example 847]
## Output 582

## Input Report measured IC50; entry is CCc1c(F)ccc2cc(O)cc(-c3ncc4c(N5CCCn6nc(S(=O)(=O)N(C)C)cc6C5)nc(OC[C@@]56CCCN5C[C@H](F)C6)nc4c3F)c12 [Example 685]
## Output 188

P: CCOC(=O)C12CCC(CN(c3nc(OC[C@@]45CCCN4C[C@H](F)C5)nc4c(F)c(-c5cc(O)cc6ccc(F)c(CC)c56)ncc34)C1)C2(F)F (stereo partly drawn) [Example 899]
Q: CCc1c(F)ccc2cc(O)cc(-c3ncc4c(N5CCC[C@@](C)(O)C5)nc(OC[C@@]56CCCN5[C@@H](CF)CC6)nc4c3F)c12 [Example 878]
## Input Field: lower recorded IC50 (choose P or Q ) Give the chosen item's label as your response.
## Output Q

---

# Target under test: KRas^G12D (Homo sapiens, UniProt P01116, G12D)
# Construct: Biotinylated KRas (corresponding to amino acids 1-169, produced at Accelegan Inc.); biotin (biotinylated); purchased Accelegan Inc
# Sequence (P01116 1-169 isoform P01116-2 G12D): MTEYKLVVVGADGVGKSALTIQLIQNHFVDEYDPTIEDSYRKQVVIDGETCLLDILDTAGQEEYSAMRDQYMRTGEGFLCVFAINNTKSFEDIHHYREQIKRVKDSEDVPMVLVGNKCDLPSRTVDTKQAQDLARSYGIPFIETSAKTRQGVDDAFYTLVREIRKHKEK
# Measurement notes: KRas binding assay (TR-FRET tracer displacement), KRas G12D
Measured endpoint: IC50 (nM)

## Input Report measured IC50; entry is CCc1c(F)ccc2cc(O)cc(-c3ncc4c(N5CCOC[C@@]6(CCO6)C5)nc(OC[C@@]56CCCN5C[C@H](F)C6)nc4c3F)c12
## Output 24

1: C#CC1(F)CCN(c2nc(OC[C@@]34CCCN3C[C@H](F)C4)nc3c(F)c(-c4cc(O)cc5ccc(F)c(CC)c45)ncc23)CC1
2: CCc1c(F)ccc2cc(O)cc(-c3ncc4c(N5CCCc6ncccc6C5)nc(OC[C@@]56CCCN5C[C@H](F)C6)nc4c3F)c12
## Input Field: lower recorded IC50 (choose 1 or 2 ) Give the chosen item's label as your response.
## Output 2

---

# Target under test: KRas^G12D (Homo sapiens, UniProt P01116, G12D)
# Construct: Biotinylated KRas (corresponding to amino acids 1-169, produced at Accelegan Inc.); biotin (biotinylated); purchased Accelegan Inc
# Measurement notes: KRas binding assay (TR-FRET tracer displacement), KRas G12D
Measured endpoint: IC50 (nM)

Sample answers from the record:
## Input Please indicate recorded IC50 of CCc1c(F)ccc2cc(O)cc(-c3ncc4c(N5CC6CCC(COC)(C6)C5)nc(OC[C@@]56CCCN5C[C@H](F)C6)nc4c3F)c12 (stereo partly drawn) measured with KRas^G12D (Homo sapiens, UniProt P01116, G12D).
## Output 22

## Input Please indicate recorded IC50 of CCc1c(F)ccc2cc(O)cc(-c3ncc4c(N5CC6CCC(C5)C6(F)F)nc(OC[C@@]56CCCN5C[C@H](F)C6)nc4c3F)c12 measured with KRas^G12D (Homo sapiens, UniProt P01116, G12D).
## Output 210

## Input Please indicate recorded IC50 of CCc1c(F)ccc2cc(O)cc(-c3ncc4c(N5CCCC6(CCS6)C5)nc(OC[C@@]56CCCN5C[C@H](F)C6)nc4c3F)c12 (stereo partly drawn) measured with KRas^G12D (Homo sapiens, UniProt P01116, G12D).
## Output 16

P: CCc1c(F)ccc2cc(O)cc(-c3ncc4c(N5CCC[C@@](C)(O)C5)nc(OCC5(CN(C)C)CC56CCC6)nc4c3F)c12 (stereo partly drawn)
Q: CCc1c(F)ccc2cc(O)cc(-c3ncc4c(N5CCN6C[C@@H](O)C[C@H]6C5)nc(OC[C@@]56CCCN5C[C@H](F)C6)nc4c3F)c12
R: CCc1c(F)ccc2cc(O)cc(-c3ncc4c(N5CCC(N6C(=O)OC7CNCC76)CC5)nc(OC[C@@]56CCCN5C[C@H](F)C6)nc4c3F)c12 (stereo partly drawn)
## Input Ascending by IC50, please: list the molecules accordingly. Could you list the labels in the order requested?
## Output P, R, Q

---

# Target under test: KRas^G12D (Homo sapiens, UniProt P01116, G12D)
# Construct: Biotinylated KRas (corresponding to amino acids 1-169, produced at Accelegan Inc.); biotin (biotinylated); purchased Accelegan Inc
# Measurement notes: KRas binding assay (TR-FRET tracer displacement), KRas G12D
Measured endpoint: IC50 (nM)

Sample answers from the record:
## Input Report measured IC50; entry is CCc1c(F)ccc2cc(O)cc(-c3ncc4c(N[C@H](C)CN5CC(C)(O)C5)nc(OC[C@@]56CCCN5C[C@H](F)C6)nc4c3F)c12
## Output 29

## Input Report measured IC50; entry is CCc1c(F)ccc2cc(O)cc(-c3ncc4c(N5CCC[C@@](C)(O)C5)nc(OCC56CNCCC5C6)nc4c3F)c12 (stereo partly drawn)
## Output 4

## Input Report measured IC50; entry is Cc1cc2c(c(-c3ncc4c(N5CCC[C@@](C)(O)C5)nc(OCC56CCCN5CCC6)nc4c3F)c1C)CC(=O)N2
## Output 1320

## Input Report measured IC50; entry is C[C@@]1(O)CCCN(c2nc(OC[C@@]34CCCN3C[C@H](F)C4)nc3c(F)c(-c4ccc(F)c5sc(N)c(C#N)c45)ncc23)C1
## Output 45

## Input Report measured IC50; entry is O=C1NC(=O)C2CC(c3nc(OCC45CCCN4CCC5)nc4c(F)c(-c5cccc6cccc(F)c56)ncc34)=CC12 (stereo not drawn)
## Output 50700

## Input Report measured IC50; entry is C[C@@H]1C[C@@H]1c1c(Cl)cc2[nH]ncc2c1-c1ncc2c(N3CCC[C@]4(C3)NC(=O)NC4=O)nc(OCC34CCCN3CCC4)nc2c1F (atropisomer, axis not shown)
## Output 5

## Input Report measured IC50; entry is CCc1c(F)ccc2cc(O)cc(-c3ncc4c(NCc5cn(C(=O)N(C)C)nc5NC(=O)C5CCC5O)nc(OC[C@@]56CCCN5C[C@H](F)C6)nc4c3F)c12 (stereo partly drawn)
## Output 1130

## Input Report measured IC50; entry is O[C@H]1CCCN(c2nc(OCC34CCCN3CCC4)nc3c(F)c(-c4cccc5cccc(Cl)c45)ncc23)C1
## Output 9830

## Input Report measured IC50; entry is CCc1c(F)ccc2cc(O)cc(-c3ncc4c(N5CCCC6(CC(O)C6)C5)nc(OCC5(CN(C)C)CC5)nc4c3F)c12 (stereo not drawn)
## Output 2

## Input Report measured IC50; entry is CCc1c(F)ccc2cc(O)cc(-c3ncc4c(N5CC6CCC(CCC(=O)NC)(C6)C5)nc(OC[C@@]56CCCN5C[C@H](F)C6)nc4c3F)c12 (stereo partly drawn)
## Output 24

A: C[C@@]1(O)CCCN(c2nc(OCC34CCCN3CCC4)nc3c(F)c(-c4ccc(F)c5sc(N)c(C#N)c45)ncc23)C1
B: CCc1c(F)ccc2cc(O)cc(-c3ncc4c(N5CCn6ncc(C#N)c6C5)nc(OC[C@@]56CCCN5C[C@H](F)C6)nc4c3F)c12
## Input Field: lower recorded IC50 (choose A or B ) Give the chosen item's label as your response.
## Output A

Where these numbers come from: patent US20260015350A1
